Entry source: patent US20250066359A1

# assayedSystem: hSSTR5 (Homo sapiens, UniProt P35346)
# Sequence (P35346 whole entry): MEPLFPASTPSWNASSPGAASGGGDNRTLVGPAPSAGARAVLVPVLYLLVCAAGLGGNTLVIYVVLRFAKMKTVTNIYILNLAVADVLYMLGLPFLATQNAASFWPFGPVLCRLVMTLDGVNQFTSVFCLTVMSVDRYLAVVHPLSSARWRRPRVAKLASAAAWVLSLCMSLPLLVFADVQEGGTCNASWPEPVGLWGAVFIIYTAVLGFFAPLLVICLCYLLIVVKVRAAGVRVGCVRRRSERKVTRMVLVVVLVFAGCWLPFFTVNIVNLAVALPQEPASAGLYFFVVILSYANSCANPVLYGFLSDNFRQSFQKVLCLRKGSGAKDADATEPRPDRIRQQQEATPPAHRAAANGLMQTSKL
# measurementDescription: SSTR5 antagonistic activity in vitro by calcium flow detection (hSSTR5-CHO-Gα16 cells)
# testSettings: hSSTR5-CHO-Gα16 cells, 100 nM Somatostatin-14 agonist, Fluo-4 fluorescence 525 nm
Give measured IC50 for each item. Keep answers brief.

GET /value?item= CCOc1cc(CN2CCC3(CC2)CN(c2ccc(C(=O)O)cc2)C3)ccc1N(CC)CC &field=IC50 returns 50 to 200 nM

GET /value?item= CCOc1cc(CN2CCC3(CC2)CN(c2ccc(C(=O)O)cc2)C3)c(C2CC2)cc1C &field=IC50 returns 0.1 to 50 nM

GET /value?item= CCOc1cc(CN2CCC3(CC2)CN(c2ccc(C(=O)O)cc2)C3)cc(OCC)c1-c1ccc(F)cc1 &field=IC50 returns 0.1 to 50 nM

GET /value?item= CCOc1cc(CN2CCC3(CC2)CN(c2ccc(C(=O)O)cc2)C3)ccc1F &field=IC50 returns 50 to 200 nM

GET /value?item= CCOc1cc(CN2CCN(S(=O)(=O)c3ccc(OC(F)(F)F)cc3)CC2)cc(OCC)c1-c1ccc(F)cc1 &field=IC50 returns > 200 nM

GET /value?item= CCOc1ccc(C2CC2)c(CN2CC3(CC(=O)N(c4ccc(C(=O)O)cc4)C3)C2)c1 &field=IC50 returns 50 to 200 nM

GET /value?item= CCOc1cc(CN2CCC3(CC2)CN(c2ccc(C(=O)O)cc2F)C3)cc(OCC)c1-c1ccc(F)cc1 &field=IC50 returns 0.1 to 50 nM

GET /value?item= CCOc1cc(CN2CC3(CC(=O)N(c4ccc(C(=O)O)cc4)C3)C2)ccc1O &field=IC50 returns > 200 nM

GET /value?item= CCOc1cc(CN2CCC3(CC2)CN(c2ccc(C(=O)O)cc2)CCO3)cc(OCC)c1-c1ccc(F)cc1 &field=IC50 returns 50 to 200 nM

GET /value?item= O=C(O)c1ccc(N2CC3(CC2=O)CN(Cc2cc(C(F)(F)F)ccc2C2CC2)C3)cc1 &field=IC50 returns > 200 nM

GET /value?item= CCOc1cc(CN2CCC3C(CCN3c3ccc(C(=O)O)cc3)C2)cc(OCC)c1-c1ccc(F)cc1 (stereo not shown) &field=IC50 returns 0.1 to 50 nM

GET /value?item= CCOc1cc(CN2CC3(CC(=O)N(c4ccc(C(=O)O)cc4)C3)C2)ccc1C &field=IC50 returns > 200 nM

GET /value?item= CCOc1cc(CN2CCC3(CCC(=O)N(c4ccc(C(=O)O)cc4)C3)CC2)cc(OCC)c1-c1ccc(F)cc1 &field=IC50 returns 50 to 200 nM

---

# assayedSystem: hSSTR5 (Homo sapiens, UniProt P35346)
# measurementDescription: SSTR5 antagonistic activity in vitro by calcium flow detection (hSSTR5-CHO-Gα16 cells)
# testSettings: hSSTR5-CHO-Gα16 cells, 100 nM Somatostatin-14 agonist, Fluo-4 fluorescence 525 nm
Give measured IC50 for each item. Keep answers brief.

Readout IC50 for CCOc1cc(CN2CCN(C3CCN(S(=O)(=O)c4ccc(C(=O)O)cc4)CC3)CC2)cc(OCC)c1-c1ccc(F)cc1 , test system hSSTR5 (Homo sapiens, UniProt P35346), was > 200 nM

Readout IC50 for CCOc1cc(CN2CC3(CC(Nc4ccc(C(=O)O)cc4)C3)C2)cc(OCC)c1-c1ccc(F)cc1 , test system hSSTR5 (Homo sapiens, UniProt P35346), was > 200 nM

Readout IC50 for CCOc1cc(CN2CCN(S(=O)(=O)c3ccc(C(=O)O)cc3)CC2)cc(OCC)c1-c1ccc(F)cc1 , test system hSSTR5 (Homo sapiens, UniProt P35346), was 50 to 200 nM

Readout IC50 for CCOc1cc(CN2CCC(C3CN(c4ccc(C(=O)O)cc4)C3)CC2)cc(OCC)c1-c1ccc(F)cc1 , test system hSSTR5 (Homo sapiens, UniProt P35346), was 50 to 200 nM

Readout IC50 for CCOc1cc(CN2CCC3(CC2)CCN(c2ccc(C(=O)O)cc2)C(=O)C3)cc(OCC)c1-c1ccc(F)cc1 , test system hSSTR5 (Homo sapiens, UniProt P35346), was 50 to 200 nM

Readout IC50 for CCOc1cc(CN2CCC3(CC2)CN(c2ccc(C(=O)O)cc2)C3=O)cc(OCC)c1-c1ccc(F)cc1 , test system hSSTR5 (Homo sapiens, UniProt P35346), was 0.1 to 50 nM

Readout IC50 for CCOc1cc(CN2CCC3(CC2)CN(c2ccc(C(=O)O)cc2)C3)c(-c2ccc(F)c(F)c2F)cc1C , test system hSSTR5 (Homo sapiens, UniProt P35346), was 50 to 200 nM

Readout IC50 for CCOc1cc(CN2CC3(CC(=O)N(c4ccc(C(=O)O)cc4)C3)C2)ccc1F , test system hSSTR5 (Homo sapiens, UniProt P35346), was > 200 nM

Readout IC50 for CCOc1cc(CN2CCC(N3CCN(S(=O)(=O)c4ccc(OC(F)(F)F)cc4)CC3)CC2)cc(OCC)c1-c1ccc(F)cc1 , test system hSSTR5 (Homo sapiens, UniProt P35346), was > 200 nM

Readout IC50 for CCOc1cc(CN2CCC3(CC2)CN(c2ccc(C(=O)O)c(OC)c2)C3)cc(OCC)c1-c1ccc(F)cc1 , test system hSSTR5 (Homo sapiens, UniProt P35346), was 0.1 to 50 nM

Readout IC50 for CCOc1cc(CN2CC3(CC(=O)N(c4ccc(C(=O)O)cc4)C3)C2)c(C2CC2)cc1C , test system hSSTR5 (Homo sapiens, UniProt P35346), was 50 to 200 nM

Readout IC50 for CCOc1cc(CN2CCC(C3CN(S(=O)(=O)c4ccc(OC(F)(F)F)cc4)C3)CC2)cc(OCC)c1-c1ccc(F)cc1 , test system hSSTR5 (Homo sapiens, UniProt P35346), was 0.1 to 50 nM

Readout IC50 for CCOc1cc(CN2CC3(CC(=O)N(c4ccc(C(=O)O)cc4)C3)C2)cc(OCC)c1-c1ccc(F)cc1 , test system hSSTR5 (Homo sapiens, UniProt P35346), was 0.1 to 50 nM

Readout IC50 for CCOc1cc(CN2CCC3(CC2)CC(NS(=O)(=O)c2ccc(OC(F)(F)F)cc2)C3)cc(OCC)c1-c1ccc(F)cc1 , test system hSSTR5 (Homo sapiens, UniProt P35346), was 50 to 200 nM

Readout IC50 for CCOc1cc(CN2CCN(C3CCN(S(=O)(=O)c4ccc(OC(F)(F)F)cc4)CC3)CC2)cc(OCC)c1-c1ccc(F)cc1 , test system hSSTR5 (Homo sapiens, UniProt P35346), was 0.1 to 50 nM

---

Give measured pIC50 for each item. Keep answers brief.
# assayedSystem: mSSTR5 (Mus musculus, UniProt O08858)
# Sequence (O08858 1-362): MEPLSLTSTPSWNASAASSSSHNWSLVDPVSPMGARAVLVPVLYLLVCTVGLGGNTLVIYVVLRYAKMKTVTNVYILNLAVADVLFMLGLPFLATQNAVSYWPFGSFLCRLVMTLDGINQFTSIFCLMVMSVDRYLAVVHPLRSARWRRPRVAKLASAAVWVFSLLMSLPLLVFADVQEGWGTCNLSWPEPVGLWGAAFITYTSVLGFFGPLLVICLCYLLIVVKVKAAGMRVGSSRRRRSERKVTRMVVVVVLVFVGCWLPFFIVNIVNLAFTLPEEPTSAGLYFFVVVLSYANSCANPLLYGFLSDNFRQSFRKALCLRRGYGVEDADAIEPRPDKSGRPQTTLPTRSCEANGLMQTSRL
# measurementDescription: SSTR5 antagonistic activity in vitro by calcium flow detection (mSSTR5-CHO-Gα16 cells)
# testSettings: 100 nM Somatostatin-14 agonist, Fluo-4 fluorescence 525 nm
# Excerpt: Testing SSTR5 antagonistic activity in vitro by Calcium flow detection method Experimental principle: After the receptor binds to the ligand and is activated, it can cause the activation of Gα16 protein, which further activates phospholipase C(PLC) to produce IP3 and DAG. […] Finally, the level of Ga protein activation can be reflected by measuring the intensity of the excited fluorescence. […]
pIC50: −log10 of the molar value.

GET /value?item= CCOc1cc(CN2CC3(CC(=O)N(c4ccc(C(=O)O)cc4)C3)C2)cc(OCC)c1-c1ccc(F)cc1 &field=pIC50 returns 7.30 to 10.00

GET /value?item= CCOc1cc(CN2CCC3(CC2)CN(c2ccc(C(=O)O)c(OC)c2)C3)cc(OCC)c1-c1ccc(F)cc1 &field=pIC50 returns 7.30 to 10.00

GET /value?item= CCOc1cc(CN2CCN(C3CCN(S(=O)(=O)c4ccc(OC(F)(F)F)cc4)CC3)CC2)cc(OCC)c1-c1ccc(F)cc1 &field=pIC50 returns 7.30 to 10.00

GET /value?item= CCOc1cc(CN2CCC3(CC2)CC(NS(=O)(=O)c2ccc(OC(F)(F)F)cc2)C3)cc(OCC)c1-c1ccc(F)cc1 &field=pIC50 returns 7.30 to 10.00
